B1: ZNF263 (parent)
chain: CSECGESFSRSSRLMSHQRTHTG

- Variants of: B1
- ASSAY_REMARKS: protein stability index of a GFP-peptide fusion (GPS, HEK-293T) (PSI 1-6); higher = more stable;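 further: lentivirally expressed fusions sorted by FACS into six bins by GFP to DsRed ratio, PSI derived from sequencing read proportions per bin multiplied by bin number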
- ASSAY_CONTEXT: c terminus: native
Measured protein stability index values are reported for all entries that follow.
METRIC_NAME: protein stability index

>>> recorded_number("CSECGESFFRSSRLMSHQRTHTG [S9F]")
2.58
>>> recorded_number("CSECGESFSRSSELMSHQRTHTG [R13E]")
5.6
>>> recorded_number("CSECGESFSRSSRLQSHQRTHTG [M15Q]")
3.51
>>> recorded_number("CSECGESFSRSSRLMSHQRTWTG [H21W]")
1.87
>>> recorded_number("CSECGESFSRSYRLMSHQRTHTG [S12Y]")
2.65
>>> recorded_number("CSECGESASRSSRLMSHQRTHTG [F8A]")
1.35
>>> recorded_number("CSECGESFSFSSRLMSHQRTHTG [R10F]")
2.51
>>> recorded_number("CSECGESFSRFSRLMSHQRTHTG [S11F]")
3.14
>>> recorded_number("CSECGESFSRSSRLMSKQRTHTG [H17K]")
2.76
>>> recorded_number("CSFCGESFSRSSRLMSHQRTHTG [E3F]")
3.31
>>> recorded_number("CSECGESFSRSSRLMSHQRVHTG [T20V]")
2.9
>>> recorded_number("CSECGESFSRSSDLMSHQRTHTG [R13D]")
5.63
>>> recorded_number("CSECGESFSRSSRLMSHPRTHTG [Q18P]")
2.22
>>> recorded_number("CSECGESFSRSSRLMSHQRTHTE [G23E]")
4.44
>>> recorded_number("CSELGESFSRSSRLMSHQRTHTG [C4L]")
1.81
>>> recorded_number("CSECGESFSRVSRLMSHQRTHTG [S11V]")
4.71
>>> recorded_number("CSWCGESFSRSSRLMSHQRTHTG [E3W]")
3.35
>>> recorded_number("CSECTESFSRSSRLMSHQRTHTG [G5T]")
2.3
>>> recorded_number("CSECGESFSYSSRLMSHQRTHTG [R10Y]")
2.83
>>> recorded_number("CSECGESFSRSSWLMSHQRTHTG [R13W]")
2.56
>>> recorded_number("CSECGESFSRSSRLMSHIRTHTG [Q18I]")
3.21
>>> recorded_number("CSECGESFSRSSRFMSHQRTHTG [L14F]")
2.43
>>> recorded_number("CSECGESFSRSSRLMSHQYTHTG [R19Y]")
3.63
>>> recorded_number("CSECGESFSRSSRLMSCQRTHTG [H17C]")
2.42
>>> recorded_number("CSECGESFSWSSRLMSHQRTHTG [R10W]")
1.15
>>> recorded_number("CSECCESFSRSSRLMSHQRTHTG [G5C]")
2.33
>>> recorded_number("CSECGESFSRSSRPMSHQRTHTG [L14P]")
1.67
>>> recorded_number("CSECGESHSRSSRLMSHQRTHTG [F8H]")
2.13
>>> recorded_number("CSECGESFSRSSRLMSHGRTHTG [Q18G]")
2.49
>>> recorded_number("CSECGESFARSSRLMSHQRTHTG [S9A]")
2.54
>>> recorded_number("CSECGESFSRSSCLMSHQRTHTG [R13C]")
4.52
>>> recorded_number("CSECGESFSRASRLMSHQRTHTG [S11A]")
4.04
>>> recorded_number("CSECGESFSCSSRLMSHQRTHTG [R10C]")
4.11
>>> recorded_number("CSECGESFSRSSRLNSHQRTHTG [M15N]")
2.22
>>> recorded_number("CSECGESFSRSSRLMSHQRTHTQ [G23Q]")
4.16
>>> recorded_number("CSECGESFSRSSRQMSHQRTHTG [L14Q]")
1.32
>>> recorded_number("CSECGASFSRSSRLMSHQRTHTG [E6A]")
3.66
>>> recorded_number("CSECGESFSRSSRLSSHQRTHTG [M15S]")
2.19
>>> recorded_number("CSECGESFSRSSRLMSHFRTHTG [Q18F]")
2.38
>>> recorded_number("CSECGESFSRSSRLMSHQDTHTG [R19D]")
4.39
>>> recorded_number("CSQCGESFSRSSRLMSHQRTHTG [E3Q]")
3.33
>>> recorded_number("CSECGESFSRSSRLMTHQRTHTG [S16T]")
3.34
>>> recorded_number("CSECGESFSRSSRLWSHQRTHTG [M15W]")
1.85
>>> recorded_number("CGECGESFSRSSRLMSHQRTHTG [S2G]")
2.86
>>> recorded_number("CSECGESFSRSSRLMSHQRTHFG [T22F]")
3.75
>>> recorded_number("CSECGESFSSSSRLMSHQRTHTG [R10S]")
5.28
>>> recorded_number("CSECGESFSRSSRLMSHRRTHTG [Q18R]")
1.89
>>> recorded_number("CSECGESFSRSSRLMSHSRTHTG [Q18S]")
2.13
>>> recorded_number("CSECGESFSRSSRLMYHQRTHTG [S16Y]")
1.93
>>> recorded_number("CSECGESFSRSLRLMSHQRTHTG [S12L]")
2.01
>>> recorded_number("CSECGESFSRSSRLMSHQATHTG [R19A]")
4.1
>>> recorded_number("CSECGESFSRSSREMSHQRTHTG [L14E]")
2.35
>>> recorded_number("CSECGESFSRSSRLGSHQRTHTG [M15G]")
1.98
>>> recorded_number("CSECGESFNRSSRLMSHQRTHTG [S9N]")
2.67
>>> recorded_number("CSECGEKFSRSSRLMSHQRTHTG [S7K]")
2.72
>>> recorded_number("CSECGESFSKSSRLMSHQRTHTG [R10K]")
2.68
